From: PubChem BioAssay

assay: HDN33 neuroblastoma growth inhibition, cell-based, chromothripsis tumors, cisplatin or BGB combos (AID 1671450); conditions: HDN33 neuroblastoma cells, at 0.5 µM, hits give high values;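 note: cells exposed to compound for four days; 0% = vehicle DMSO and 100% = cell killing by high DMSO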
Binary classification by inhibition, with -20% as an inclusive lower bound for t; all other cases are f.

COc1cc(C2c3cc4c(cc3C(O)C3COC(=O)C23)OCO4)cc(OC)c1OC (stereo not given)	t

Can NC(Cc1ccc(N(CCCl)CCCl)cc1)C(=O)O (stereo not given) be said to have inhibition at or above -20%?
t

Kindly determine if inhibition recorded for CN(C)NC(=O)CCC(=O)O is above or exactly -20%.
f

Determine whether measured inhibition meets or exceeds -20% for Cc1c2ccncc2c(C)c2c1[nH]c1ccccc12
t

Hello, I need to know if O=C(O)CCCc1ccc(N(CCCl)CCCl)cc1 has measured inhibition not below -20%. Thanks!
t

###

target: Protein kinase 7 (PK7), Plasmodium falciparum 3D7 (PF3D7_0213400) (UniProt Q7YTF7); experiment: inhibition of Plasmodium PK7 catalytic activity – biochemical, TCAMS antimalarial set, Kinase-Glo luminescence (AID 1159587); settings: recombinant PfPK7, Kinase-Glo ATP depletion luminescence
Active and inactive are the calls of the source. No rule for the calls is given here.
Recorded Metric: outcome

CCOC(C(=O)OCCN(C(C)C)C(C)C)(c1ccccc1)c1ccccc1	inactive
CC[C@H]1CN2CC[C@H]1C[C@@H]2[C@H](O)c1ccnc2ccc(O)cc12	inactive
CCCCCc1cc(O)c2c(c1)OC(C)(C)CC2C1=CCN(Cc2cccnc2)CC1 (stereo not drawn)	inactive

###

Would you kindly list remaining activity for each of these compounds?
system: Aerobactin synthetase IucA (Klebsiella pneumoniae, hypervirulent); experiment: IucA enzyme inhibition, biochemical, LOPAC library, absorbance readout (AID 1346212); settings: IucA enzyme assay, absorbance (OD) readout; hits give low values;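 tested at 8 µM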;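 note: 100% = no compound wells and 0% = no enzyme wells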
Numbers only, in %.

// known answers, use as guide
N#Cc1c(-c2ccccc2)no[n+]1[O-]	125
CC(=O)OCC(=O)[C@@]1(O)CC[C@H]2[C@@H]3CCC4=CC(=O)CC[C@]4(C)[C@H]3C(=O)C[C@@]21C	102
NCCCS(=O)(=O)O	111

For each of the compounds below, state remaining activity.
1. CC(=O)[C@H]1CC[C@H]2[C@@H]3CC[C@H]4C[C@](C)(O)CC[C@]4(C)[C@H]3CC[C@]12C
2. CC(C)(C)c1ccc(S(=O)(=O)/C=C/C#N)cc1
3. O=[N+]([O-])c1cc(O)c(O)c([N+](=O)[O-])c1
4. N[C@@H](CCC(=O)N[C@@H](CSN=O)C(=O)NCC(=O)O)C(=O)O
5. CCN(CC)CCOC(=O)c1cc(Cl)c(N)cc1OC
6. CCn1nc(C(=O)O)c(=O)c2cc3c(cc21)OCO3
7. NC(=O)c1cc[n+](CC2=C(C(=O)O)N3C(=O)[C@@H](NC(=O)[C@@H](c4ccccc4)S(=O)(=O)[O-])[C@H]3SC2)cc1

116
119
97
119
103
111
107

Items follow; give remaining activity for each.
1. CN1CCc2cc(O)cc3c2[C@H]1Cc1ccc(O)c(O)c1-3
2. COC(=O)N1CCN(C(=O)Cc2ccc(Cl)c(Cl)c2)C(CN2CCCC2)C1 (stereo not drawn)

1: 101; 2: 101

Give me remaining activity for each of these compounds, listed below.
1. N[C@@H](Cc1ccc(F)cc1)C(=O)O
2. Cc1[nH]c2ccc(O)cc2c1CCN
3. O=C(O)/C=C/c1ccc(O)c(O)c1
4. CN[C@H](CC(C)C)C(=O)N[C@H]1C(=O)N[C@@H](CC(N)=O)C(=O)N[C@H]2C(=O)N[C@H]3C(=O)N[C@H](C(=O)N[C@H](C(=O)O)c4cc(O)cc(O)c4-c4cc3ccc4O)[C@H](O)c3ccc(c(Cl)c3)Oc3cc2cc(c3O[C@@H]2O[C@H](CO)[C@@H](O)[C@H](O)[C@H]2O[C@H]2C[C@](C)(N)[C@H](O)[C@H](C)O2)Oc2ccc(cc2Cl)[C@H]1O
5. N#C/C(=C\c1ccc(O)c(O)c1)C(=O)Nc1ccccc1
6. Cn1cnc(CCN)c1
7. OC(CN1CCC(Cc2ccc(F)cc2)CC1)c1ccc(Cl)cc1 (stereo not drawn)

1. 95
2. 118
3. 117
4. 98.6
5. 103
6. 125
7. 99.6
